Can you tell me Agonist activity (EC50), Cre-luc reporter assay for the items I'm about to list?
# Study Target: human GLP-1R (human, UniProt P43220 24-463)
# Test Method Notes: cell-based or functional assay
Square brackets hold non-standard residues; d marks the D form. Side chains are listed from the residue outwards. Phe(2-F) = N[C@@H](Cc1ccccc1F)C(=O)O; αMeF = C[C@](N)(Cc1ccccc1)C(=O)O; Iva = CC[C@](C)(N)C(=O)O; Oda = not defined here; Aib = CC(C)(N)C(=O)O
Kindly provide the numeric value in pM only, without the unit symbol.

Agonist activity (EC50), Cre-luc reporter assay for "H-Y[Aib]EGT[αMeF]TSDK([Gly-Gly-Gly-Gly-Pal])[Aib]I[Aib]LDKQAQ[Iva]EFVRHLLNK[Aib]TRQR[Phe(2-F)]-NH2" ? 14

Given H-Y[Aib]EGT[αMeF]TSDK([Gly-Gly-Gly-Gly-Oda])AI[Aib]LEKQRQ[Iva]EFVRHLLNK[Aib]TRQRY-NH2 (reading uncertain; also: printed as H-Tyr-Aib-Glu-Gly-Thr-αMePhe-Thr-Ser-Asp-Lys(-Gly-Gly-Gly-Gly-Oda)-Ala-Ile-Aib-Leu-Glu-Lys-Gln-Arg-Gln-Iva-Glu-Phe-Val-Arg-His-Leu-Leu-Asn-Lys-Aib-Thr-Arg-Gln-Arg-Tyr-NH2) , state its recorded Agonist activity (EC50), Cre-luc reporter assay. 530

Fill in the blank: the reported Agonist activity (EC50), Cre-luc reporter assay of "H-Y[Aib]EGT[αMeF]TSDK([Gly-Gly-Gly-Gly-Pal])SK[Aib]LDKQRQ[Iva]EFVRHLLNK[Aib]TRQRY-NH2" is ____. 130

Using the record for "Me-Y[Aib]EGT[αMeF]TSDK([Gly-Gly-Gly-Gly-Pal])[Aib]I[Aib]LDKQAQ[Iva]EFVRHLLNK[Aib]TRQRY-NH2" , report its Agonist activity (EC50), Cre-luc reporter assay. 43
